- assay_system: JAK2 tyrosine kinase (Homo sapiens)
- Sequence (O60674 whole entry): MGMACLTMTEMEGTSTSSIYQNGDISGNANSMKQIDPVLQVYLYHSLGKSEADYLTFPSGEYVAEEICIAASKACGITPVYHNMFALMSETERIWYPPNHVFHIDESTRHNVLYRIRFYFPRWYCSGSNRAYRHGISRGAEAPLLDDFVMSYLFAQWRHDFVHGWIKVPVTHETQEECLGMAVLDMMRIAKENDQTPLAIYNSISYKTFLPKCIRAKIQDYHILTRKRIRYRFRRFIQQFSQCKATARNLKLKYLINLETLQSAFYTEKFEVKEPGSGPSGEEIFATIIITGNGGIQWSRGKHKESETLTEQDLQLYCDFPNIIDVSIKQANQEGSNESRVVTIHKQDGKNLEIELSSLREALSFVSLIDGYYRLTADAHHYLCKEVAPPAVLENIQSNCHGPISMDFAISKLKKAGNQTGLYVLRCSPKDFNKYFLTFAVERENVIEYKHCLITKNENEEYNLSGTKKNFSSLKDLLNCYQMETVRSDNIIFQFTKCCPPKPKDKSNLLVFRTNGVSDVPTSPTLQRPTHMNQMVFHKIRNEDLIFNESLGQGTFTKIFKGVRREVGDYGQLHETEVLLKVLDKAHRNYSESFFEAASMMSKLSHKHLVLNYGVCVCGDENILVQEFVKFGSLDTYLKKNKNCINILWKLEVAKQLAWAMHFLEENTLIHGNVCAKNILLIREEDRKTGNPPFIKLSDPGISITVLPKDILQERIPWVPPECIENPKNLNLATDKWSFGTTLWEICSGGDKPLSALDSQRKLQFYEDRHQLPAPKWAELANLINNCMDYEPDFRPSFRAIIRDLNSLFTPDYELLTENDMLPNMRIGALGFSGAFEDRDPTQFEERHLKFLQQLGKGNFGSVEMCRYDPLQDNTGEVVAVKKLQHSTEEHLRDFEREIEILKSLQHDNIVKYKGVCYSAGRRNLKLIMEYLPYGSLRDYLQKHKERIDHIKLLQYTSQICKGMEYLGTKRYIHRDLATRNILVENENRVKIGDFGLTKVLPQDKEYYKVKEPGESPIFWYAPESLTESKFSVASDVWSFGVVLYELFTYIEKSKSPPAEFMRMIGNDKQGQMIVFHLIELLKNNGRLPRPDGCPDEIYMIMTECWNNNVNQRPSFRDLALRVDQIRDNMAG
Where a name gives a salt, the structure may show the parent alone.
observable: IC50 (nM)

Study these solved cases before continuing.
For the compound `C[C@H](Nc1nc(Nc2cnccn2)cc(-c2ccnc(O)c2)n1)c1ccc(F)cc1` , report IC50.
0.97

Dear colleague, please send me the reported IC50 for `C[C@H](Nc1cc(-c2ccnn2C)cc(Nc2cnccn2)n1)c1ccc(F)cc1` when you can.
12

Please list IC50 recorded for the compound C[C@H](Nc1nc(Nc2cnccn2)cc(N2CCN(S(C)(=O)=O)CC2)n1)c1ccc(F)cc1 [Example 65, hydrochloride]
0.27

Check the records and state IC50 for `C[C@H](Nc1cc(-c2ccc(S(N)(=O)=O)cc2)cc(Nc2cnccn2)n1)c1ccc(F)cc1`
8.8

For the compound Cc1cnc(CNc2cc(Nc3cnccn3)nc(N[C@@H](C)c3ccc(F)cc3)n2)cn1 [Example 102, hydrochloride] , report IC50.
2.6

Report IC50, nothing else, for this compound: `C[C@H](Nc1nc(NCCN2CCCC2)cc(Nc2cnccn2)n1)c1ccc(F)cc1`
1.4

Query IC50 for C[C@H](Nc1nc(NCCNS(C)(=O)=O)cc(Nc2cnccn2)n1)c1ccc(F)cc1 [Example 77, hydrochloride]
0.73

Look up and report measured IC50 for this entry: `CC(=O)NC1CN(c2cc(Nc3cnccn3)nc(N[C@@H](C)c3ccc(F)cc3)n2)C1`
1

I: C[C@H](Nc1nc(Nc2cnccn2)cc(-c2cn[nH]c2)n1)c1ccc(F)cc1 [Example 11, hydrochloride]
II: C[C@H](Nc1nc(Nc2cnccn2)cc(N2CCCC2=O)n1)c1ccc(F)cc1
Lab log: flag the item ( I or II ) with the smaller IC50 figure. Choose, then provide that item's label.
I
